meta.source: ChEMBL document CHEMBL1806408

- experimental.details: Selectivity ratio of EC50 for human adrenergic beta2 receptor to EC50 for adrenergic beta1 receptor
experimental.readout: Ratio EC50
# output: bare number, no unit

Record request: Ratio EC50 value, item "O=c1[nH]c2c(O)ccc([C@@H](O)CNCCCOCCNCCc3cccc(Cl)c3Cl)c2s1" 178

Record request: Ratio EC50 value, item "CN(CCOCCCNC[C@H](O)c1ccc(O)c2[nH]c(=O)sc12)CCc1ccccc1" 79

Record request: Ratio EC50 value, item "O=c1[nH]c2c(O)ccc([C@@H](O)CNCCCOCCNCCc3cccc(Cl)c3)c2s1" 100

Record request: Ratio EC50 value, item "O=c1[nH]c2c(O)ccc([C@@H](O)CNCCCSCCNCCc3cccc(Cl)c3Cl)c2s1" 35

Record request: Ratio EC50 value, item "NC(=O)C(c1ccccc1)(c1ccccc1)[C@@H]1CCN(CCc2ccc3c(c2)CCO3)C1" 2

* * *

- experimental.details: in vivo
- condition: rat, plasma, iv
Give half-life for every item shown.

Record request: half-life value, item OCc1cc(C(O)CNCCCCCCOCCCCc2ccccc2)ccc1O (stereo not given) 2.9 h

Record request: half-life value, item "NC(=O)C(c1ccccc1)(c1ccccc1)[C@@H]1CCN(CCc2ccc3c(c2)CCO3)C1" 7.6 h

Record request: half-life value, item "O=c1[nH]c2c(O)ccc([C@@H](O)CNCCSCCCNCCc3cccc(Cl)c3Cl)c2s1" 10.1 h

Record request: half-life value, item "O=c1[nH]c2c(O)ccc([C@@H](O)CNCCCSCCOCCc3cccc4ccccc34)c2s1" 3.5 h

Record request: half-life value, item "O=c1[nH]c2c(O)ccc([C@@H](O)CNCCSCCCNCCc3ccccc3)c2s1" 10.8 h

* * *

- experimental.details: physchem
- condition: octanol/phosphate buffer, pH 7.4
Give logD for every item shown.

Record request: logD value, item "O=c1[nH]c2c(O)ccc([C@@H](O)CNCCCSCCCOCCc3ccccc3)c2s1" > 2.5

Record request: logD value, item "O=c1[nH]c2c(O)ccc([C@@H](O)CNCCCSCCNCCc3cccc(Cl)c3Cl)c2s1" 1.7

Record request: logD value, item "O=c1[nH]c2c(O)ccc([C@@H](O)CNCCCOCCNCCc3cccc(Cl)c3)c2s1" 0

Record request: logD value, item "CCc1ccc(CCNCCCSCCNC[C@H](O)c2ccc(O)c3[nH]c(=O)sc23)cc1" 0.9

Record request: logD value, item O=c1[nH]c2c(O)ccc([C@@H](O)CNCC[S+]([O-])CCCNCCc3cccc(Cl)c3)c2s1 (stereo partly specified) 0.2

Record request: logD value, item OCc1cc(C(O)CNCCCCCCOCCCCc2ccccc2)ccc1O (stereo unspecified) [SALMETEROL] 1.9
